# test.system: Ecdysone receptor (Aedes aegypti) (UniProt P49880)
# Sequence (P49880 whole entry): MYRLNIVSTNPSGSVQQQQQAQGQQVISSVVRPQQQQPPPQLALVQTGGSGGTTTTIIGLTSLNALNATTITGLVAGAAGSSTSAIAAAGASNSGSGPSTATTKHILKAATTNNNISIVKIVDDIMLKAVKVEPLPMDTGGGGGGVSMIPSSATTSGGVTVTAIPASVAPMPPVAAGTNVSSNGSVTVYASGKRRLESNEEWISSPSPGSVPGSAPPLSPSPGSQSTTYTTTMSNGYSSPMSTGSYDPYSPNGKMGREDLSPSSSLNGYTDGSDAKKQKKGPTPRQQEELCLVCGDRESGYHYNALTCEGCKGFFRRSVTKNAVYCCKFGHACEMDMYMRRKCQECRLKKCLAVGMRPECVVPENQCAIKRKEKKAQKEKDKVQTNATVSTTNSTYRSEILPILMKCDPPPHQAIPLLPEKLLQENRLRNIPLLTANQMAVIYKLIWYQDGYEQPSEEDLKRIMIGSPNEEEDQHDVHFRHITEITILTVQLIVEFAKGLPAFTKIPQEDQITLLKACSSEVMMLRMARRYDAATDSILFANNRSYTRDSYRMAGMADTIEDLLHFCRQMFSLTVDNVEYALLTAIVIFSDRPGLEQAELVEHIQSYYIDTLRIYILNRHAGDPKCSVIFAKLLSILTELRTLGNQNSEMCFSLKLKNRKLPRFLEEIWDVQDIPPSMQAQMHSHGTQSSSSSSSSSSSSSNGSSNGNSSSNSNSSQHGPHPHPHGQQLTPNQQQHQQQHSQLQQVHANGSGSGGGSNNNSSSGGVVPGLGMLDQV
# protocol.text: Ratio of maximal ecdysone-dependent transactivation in cell line expressing Aedes aegypti ecdysone receptor compared to cpd2
# Assay type: functional
Known Rel Max FI of a selection of compounds

substance.smiles	experimental.endpoint	assay.result
COc1ccc(C(=O)N2c3ccc(C)cc3[C@@H](Nc3ccc(C)cc3)C[C@H]2C)cc1	Rel Max FI	0.09

Incoming: Please look up its Rel Max FI: Cc1ccc(N[C@H]2C[C@@H](C)N(C(=O)c3ccc(Cl)cc3)c3ccc(C)cc32)cc1
Outgoing: 0.39

Incoming: Now the same for Cc1ccc(N[C@H]2C[C@@H](C)N(C(=O)c3cccc(C)c3)c3ccc(C)cc32)cc1
Outgoing: 0.01

Incoming: Now the same for C[C@@H]1C[C@H](Nc2ccccc2)c2ccccc2N1C(=O)c1ccccc1
Outgoing: 0.07

Incoming: Now the same for Cc1ccc(C(=O)N2c3ccc(F)cc3[C@@H](Nc3ccc(F)cc3)C[C@H]2C)cc1
Outgoing: 0.67

Incoming: Now the same for C[C@@H]1C[C@H](Nc2ccc(F)cc2)c2cc(F)ccc2N1C(=O)c1ccc(Cl)cc1
Outgoing: 0.7

Incoming: Now the same for Cc1ccc(N[C@H]2C[C@@H](C)N(C(=O)c3ccc(C(F)(F)F)cc3)c3ccc(C)cc32)cc1
Outgoing: 0.23

Incoming: Now the same for COc1ccc(C(=O)N2c3ccccc3[C@@H](Nc3ccccc3)C[C@H]2C)cc1
Outgoing: 0.44

Incoming: Now the same for Cc1ccc(N[C@H]2C[C@@H](C)N(C(=O)c3cccc(C(F)(F)F)c3)c3ccc(C)cc32)cc1
Outgoing: 0.47

Incoming: Now the same for C[C@@H]1C[C@H](Nc2ccccc2)c2ccccc2N1C(=O)c1cccc(F)c1
Outgoing: 0.44

Incoming: Now the same for C[C@@H]1C[C@H](Nc2ccc(F)cc2)c2cc(F)ccc2N1C(=O)c1ccc(C(F)(F)F)cc1
Outgoing: 0.63

Incoming: Now the same for COc1ccc(C(=O)N2c3ccc(F)cc3[C@@H](Nc3ccc(F)cc3)C[C@H]2C)cc1
Outgoing: 0.87

Incoming: Now the same for C[C@@H]1C[C@H](Nc2ccccc2)c2ccccc2N1C(=O)c1ccc(C(F)(F)F)cc1
Outgoing: 0.64

Incoming: Now the same for COc1cccc(C(=O)N2c3ccc(C)cc3[C@@H](Nc3ccc(C)cc3)C[C@H]2C)c1
Outgoing: 0.01
